Tested on: HCT116 cells
Test details: MTT antiproliferative assay, HCT116 cells
Type: cell-based
Assay context: Homo sapiens, HCT-116, HCT116 CRC cell line, triplicate, read-out: IC50 ± SD HCT116
Provide the recorded pIC50 for the entries that follow.
Expect pIC50 as a plain number equal to -log10 of the molar concentration.

Tell me its pIC50 given Cc1nc2c(cnn2-c2ccccc2)c(=O)n1CC(=O)Nc1ccc(Cl)cc1 as the entry.
5.47

Tell me its pIC50 given COc1cccc(NC(=O)Cn2c(C)nc3c(cnn3-c3ccccc3)c2=O)c1 as the entry.
4.58

Tell me its pIC50 given Cc1nc2c(cnn2-c2ccccc2)c(=O)n1CC(=O)Nc1cccc2ccccc12 as the entry.
4.38

Tell me its pIC50 given Cc1nc2c(cnn2-c2ccccc2)c(=O)n1CC(=O)c1ccc(Cl)cc1 as the entry.
4.45

Tell me its pIC50 given Cc1ccc(C(=O)Cn2c(C)nc3c(cnn3-c3ccccc3)c2=O)cc1 as the entry.
4.97
